- systemUnderTest: T1, EsCas13d, nuclease-dead (Eubacterium siraeum, UniProt B0MS50, R295A;H300A;R849A;H854A)
- T1 sequence: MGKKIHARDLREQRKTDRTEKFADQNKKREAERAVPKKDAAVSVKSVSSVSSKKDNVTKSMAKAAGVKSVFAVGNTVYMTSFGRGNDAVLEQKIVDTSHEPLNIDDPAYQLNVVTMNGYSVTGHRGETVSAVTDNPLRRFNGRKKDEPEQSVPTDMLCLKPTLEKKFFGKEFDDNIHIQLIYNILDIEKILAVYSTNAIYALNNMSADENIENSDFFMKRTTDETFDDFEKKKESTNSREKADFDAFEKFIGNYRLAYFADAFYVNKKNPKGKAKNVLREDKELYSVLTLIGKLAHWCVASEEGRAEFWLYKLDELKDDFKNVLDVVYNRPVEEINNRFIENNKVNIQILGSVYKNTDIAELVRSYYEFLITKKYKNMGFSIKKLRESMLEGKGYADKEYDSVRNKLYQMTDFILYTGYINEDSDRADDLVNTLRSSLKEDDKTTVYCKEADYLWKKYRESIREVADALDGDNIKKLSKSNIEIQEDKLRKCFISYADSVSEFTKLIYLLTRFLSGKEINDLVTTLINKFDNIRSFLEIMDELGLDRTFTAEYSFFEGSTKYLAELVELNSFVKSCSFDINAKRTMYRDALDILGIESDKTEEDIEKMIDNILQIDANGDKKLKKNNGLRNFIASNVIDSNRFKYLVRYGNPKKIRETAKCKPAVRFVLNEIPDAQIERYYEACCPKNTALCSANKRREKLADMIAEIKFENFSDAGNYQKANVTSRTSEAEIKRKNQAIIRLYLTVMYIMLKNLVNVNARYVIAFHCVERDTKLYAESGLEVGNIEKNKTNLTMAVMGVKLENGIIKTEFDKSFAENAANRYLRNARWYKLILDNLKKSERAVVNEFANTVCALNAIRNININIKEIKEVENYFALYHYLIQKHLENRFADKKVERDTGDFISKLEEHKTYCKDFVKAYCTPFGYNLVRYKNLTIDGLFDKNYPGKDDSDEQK
- assayNotes: crRNA (strand 1, pre-loaded); Mg2+; 40 mM Tris-HCl pH 7.5, 150 mM NaCl, 6 mM MgCl2, 1 mM DTT, 0.1% Tween-20, 0.2 mg/ml BSA; 25 C; 10 min per concentration, then washed
- runParameters: tags: His6-TwinStrep-SUMO cleaved; N-terminal SNAP kept (SNAP-Surface 488); label: 3' end held by stalled T7 RNA polymerase
Cut-off 20 nM on Kd: below means met, at or above means not met.

Problem: For the binder target 1 insA 3' of 19,insA 3' of 12 (mixed) RNA 1: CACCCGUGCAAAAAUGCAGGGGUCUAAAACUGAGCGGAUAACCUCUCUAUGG RNA 2: GGGAAUGGAUCCACAUCUACGAAUUCGUACCAUAAGAGAGGAUUAUCCGCUCACCGAGAUCGGAAGAGCACACGU , is Kd under 20 nM?
not met

Problem: For the binder target 2 MT 5'PFS ACC 3'PFS UAC (mixed) RNA 1: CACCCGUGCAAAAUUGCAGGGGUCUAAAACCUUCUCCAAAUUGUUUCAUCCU RNA 2: GGGAAUGGAUCCACAUCUACGAAUUCACCAGGAUGAAACAAUUUGGAGAAGUACAGAUCGGAAGAGCACACGU , is Kd under 20 nM?
met

Problem: For the binder target 1 insC 3' of 10,insU 3' of 9 (mixed) RNA 1: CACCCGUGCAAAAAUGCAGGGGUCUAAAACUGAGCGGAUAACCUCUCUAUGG RNA 2: GGGAAUGGAUCCACAUCUACGAAUUCGUACCAUAGAGAGGUUCAUUCCGCUCACCGAGAUCGGAAGAGCACACGU , is Kd under 20 nM?
not met

Problem: For the binder target 2 MT 5'PFS AAG 3'PFS CAC (mixed) RNA 1: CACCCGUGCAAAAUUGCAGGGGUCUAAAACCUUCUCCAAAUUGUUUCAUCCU RNA 2: GGGAAUGGAUCCACAUCUACGAAUUCAAGAGGAUGAAACAAUUUGGAGAAGCACAGAUCGGAAGAGCACACGU , is Kd under 20 nM?
met

Problem: For the binder target 2 MT 5'PFS AAA 3'PFS AAA (mixed) RNA 1: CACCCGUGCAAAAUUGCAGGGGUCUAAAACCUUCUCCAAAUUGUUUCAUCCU RNA 2: GGGAAUGGAUCCACAUCUACGAAUUCAAAAGGAUGAAACAAUUUGGAGAAGAAAAGAUCGGAAGAGCACACGU , is Kd under 20 nM?
met

Problem: For the binder target 1 C2A,C7G (mixed) RNA 1: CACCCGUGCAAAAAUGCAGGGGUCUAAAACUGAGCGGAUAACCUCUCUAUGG RNA 2: GGGAAUGGAUCCACAUCUACGAAUUCGUACCAUAGAGAGGUUAUGCGCUAACCGAGAUCGGAAGAGCACACGU , is Kd under 20 nM?
met

Problem: For the binder target 1 C6U,A9U (mixed) RNA 1: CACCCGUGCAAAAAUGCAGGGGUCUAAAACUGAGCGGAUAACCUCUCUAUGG RNA 2: GGGAAUGGAUCCACAUCUACGAAUUCGUACCAUAGAGAGGUUUUCUGCUCACCGAGAUCGGAAGAGCACACGU , is Kd under 20 nM?
met

Problem: For the binder target 1 del1,del13 (mixed) RNA 1: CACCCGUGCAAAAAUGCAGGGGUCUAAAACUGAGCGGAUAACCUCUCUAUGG RNA 2: GGGAAUGGAUCCACAUCUACGAAUUCGUACCAUAGAGAGUUAUCCGCUCCCGAGAUCGGAAGAGCACACGU , is Kd under 20 nM?
not met
